- System Name: Cannabinoid receptor 2 (Homo sapiens)
- Sequence (P34972 whole entry): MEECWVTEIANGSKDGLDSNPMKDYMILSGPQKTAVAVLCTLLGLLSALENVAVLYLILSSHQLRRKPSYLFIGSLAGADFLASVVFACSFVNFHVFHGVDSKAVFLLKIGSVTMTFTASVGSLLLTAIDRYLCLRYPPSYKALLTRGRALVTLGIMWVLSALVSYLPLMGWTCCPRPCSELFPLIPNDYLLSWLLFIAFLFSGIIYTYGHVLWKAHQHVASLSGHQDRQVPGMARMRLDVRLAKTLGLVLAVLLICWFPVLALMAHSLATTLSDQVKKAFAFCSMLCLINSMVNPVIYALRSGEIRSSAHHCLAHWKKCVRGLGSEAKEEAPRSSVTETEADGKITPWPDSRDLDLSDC
- Assay Procedure: Agonist activity at human recombinant CB2 receptor expressed in HEK cells assessed as calcium mobilization by FLIPR
Property Measured: EC50 (nM)
// return numeric value only (unit: nM, not printed)

// known answers, use as guide
CC1(C)C(C(=O)c2cn(CCN3CCOCC3)c3cc(O)ccc23)C1(C)C = 186
CC1(C)C(C(=O)c2cn(CCN3CCOCC3)c3ccccc23)C1(C)C = 14
CC1(C)C(C(=O)c2cn(CC3CCOCC3)c3ccc(CO)cc23)C1(C)C = 73
CC1(C)C(C(=O)c2cn(CC3CCOCC3)c3cc(OCc4ccccc4)ccc23)C1(C)C = 135
CC1(C)C(C(=O)c2cn(CC3CCOCC3)c3ccc(Cl)cc23)C1(C)C = 92
CC1(C)C(C(=O)c2cn(CC3CCOCC3)c3ccc(C#N)cc23)C1(C)C = 226
CC1(C)C(C(=O)c2cn(CC3CCOCC3)c3cccc(OCc4ccccc4)c23)C1(C)C = 383

Exam item: Send back Cannabinoid receptor 2 (Homo sapiens) EC50 of CC1(C)C(C(=O)c2cn(CC3CCOCC3)c3c(F)c(F)c(F)c(F)c23)C1(C)C only.
Marked response: 37
